B1: HDV Ribozyme (parent)
chain: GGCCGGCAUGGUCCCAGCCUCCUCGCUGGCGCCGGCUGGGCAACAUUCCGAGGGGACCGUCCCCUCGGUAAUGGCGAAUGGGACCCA

variants of: B1; test: self-cleavage, relative activity (ratio to wild type); higher = more cleavage; co-transcriptional
Note to self: class = bucket of self-cleavage, per low (below 0.08), intermediate (0.08 to below 0.5), high (0.5 or more)

>  <MUTATION CODE>
U9A G82A

>  <CLASS LABEL>
intermediate

$$$$
>  <MUTATION CODE>
C48G A83U

>  <CLASS LABEL>
high

$$$$
>  <MUTATION CODE>
C13A U79C

>  <CLASS LABEL>
low

$$$$
>  <MUTATION CODE>
A56G U60C

>  <CLASS LABEL>
high

$$$$
>  <MUTATION CODE>
C14A C62U

>  <CLASS LABEL>
high

$$$$

Textbook exercise: identify the category of the variant given here, C26U G39U , according to its measured value.
high

Textbook exercise: identify the category of the variant given here, A45U A77C , according to its measured value.
intermediate

Textbook exercise: identify the category of the variant given here, C24G C33G , according to its measured value.
low

Textbook exercise: identify the category of the variant given here, U20A G68A , according to its measured value.
low

Textbook exercise: identify the category of the variant given here, C4A C15U , according to its measured value.
low

Textbook exercise: identify the category of the variant given here, G6U G68A , according to its measured value.
intermediate

Textbook exercise: identify the category of the variant given here, C3U A8U , according to its measured value.
high

Textbook exercise: identify the category of the variant given here, A16G A56U , according to its measured value.
high

Textbook exercise: identify the category of the variant given here, C32A A71G , according to its measured value.
intermediate

Textbook exercise: identify the category of the variant given here, C41G A43U , according to its measured value.
intermediate

Textbook exercise: identify the category of the variant given here, C4A C49A , according to its measured value.
intermediate

Textbook exercise: identify the category of the variant given here, U37G G39U , according to its measured value.
low

Textbook exercise: identify the category of the variant given here, G10U U79C , according to its measured value.
low

Textbook exercise: identify the category of the variant given here, U27A A42C , according to its measured value.
intermediate

Textbook exercise: identify the category of the variant given here, C13A A71U , according to its measured value.
low

Textbook exercise: identify the category of the variant given here, C44A A56C , according to its measured value.
high

Measured values drawn from the RNAGym collection of RNA variant scans (doi:10.7554/elife.80360) for this set.
